Target: hAT1R (Homo sapiens, UniProt P30556)
Sequence (P30556 1-359): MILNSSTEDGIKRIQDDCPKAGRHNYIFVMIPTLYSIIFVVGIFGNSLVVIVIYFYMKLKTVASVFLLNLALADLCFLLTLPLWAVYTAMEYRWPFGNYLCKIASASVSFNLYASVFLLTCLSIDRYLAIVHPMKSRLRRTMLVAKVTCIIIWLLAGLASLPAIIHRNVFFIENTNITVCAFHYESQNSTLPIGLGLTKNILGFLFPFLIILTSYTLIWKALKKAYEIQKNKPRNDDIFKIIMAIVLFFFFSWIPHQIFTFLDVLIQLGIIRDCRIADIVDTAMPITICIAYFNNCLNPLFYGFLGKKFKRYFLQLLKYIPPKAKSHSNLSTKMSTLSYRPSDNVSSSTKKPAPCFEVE
Assay: BRET β-arrestin2 biosensor assay, higher receptor expression (hAT1R 5 ng/well), HEK293 cells
Format: cell-based
recorded-metric: BRET β-Arrestin2 High AT1R Expression Ymax (%)

Look over these answered cases.
smiles-representation | result
CCCCOC(=O)NS(=O)(=O)c1sc(-c2ccccc2C)cc1-c1ccc(Cn2c(CC)nc3c(C)cc(C)nc32)cc1 | 84.6%
CCc1nc2c(C)cc(C)nc2n1Cc1ccc(-c2cc(Oc3cncc(C)c3)ccc2-c2nn[nH]n2)cc1 | 87.9%
CCCCOC(=O)NS(=O)(=O)c1sc(-c2ccccc2C(F)(F)F)cc1-c1ccc(Cn2c(CC)nc3c(C)cc(C)nc32)cn1 | 84.8%

Task: May I ask what BRET β-Arrestin2 High AT1R Expression Ymax (%) has been recorded for CCc1nc2c(C)cc(C)nc2n1Cc1ccc(-c2cc(-c3ccc(C(=O)N(C)C)cc3)ccc2C(=O)O)cc1 ?
Result: 86.7%

====

target: hAT1R (Homo sapiens, UniProt P30556); test: BRET β-arrestin2 biosensor assay, higher receptor expression (hAT1R 5 ng/well), HEK293 cells; format: cell-based; conditions: High AT1R Expression
recorded-metric: pEC50
Interpret pEC50 as the negative base-10 log of the concentration measured in mol/L.

Look over these answered cases.
molecule | system-tested | pEC50
CCc1nc2c(C)cc(C)nc2n1Cc1ccc(-c2cc(Oc3ncccc3Cl)ccc2-c2nn[nH]n2)cc1 [Example 255] | hAT1R (Homo sapiens, UniProt P30556) | 7.61
CCc1nc2c(C)cc(C)nc2n1Cc1ccc(-c2cc(-c3cc(F)cc(F)c3)ccc2-c2nn[nH]n2)cc1 [Example 53] | hAT1R (Homo sapiens, UniProt P30556) | 8.27
CCCCC(=O)N(Cc1ccc(-c2cc(Oc3ccccc3)ccc2-c2nn[nH]n2)cc1)C1(C(=O)O)CCCCC1 [Example 285] | hAT1R (Homo sapiens, UniProt P30556) | 7.24

Task: May I ask what pEC50 has been recorded for CCOc1nc2cccc(C(=O)O)c2n1Cc1ccc(-c2cc(N3CCCC(F)(F)C3)ccc2C(=O)O)cc1 [Example 315] ?
Result: 5.74

Task: May I ask what pEC50 has been recorded for CCc1nc2c(C)cc(C)nc2n1Cc1ccc(-c2cc(-c3cc(C)cc(C)c3)ccc2-c2nn[nH]n2)cc1 [Example 9] ?
Result: 8.25

Task: May I ask what pEC50 has been recorded for CCCCC(=O)N(Cc1ccc(-c2cc(-c3ccccc3)ccc2-c2nn[nH]n2)cc1)[C@]1(C(=O)O)CC[C@@H](O)CC1 [Example 283] ?
Result: 7.64

Task: May I ask what pEC50 has been recorded for CCCCc1nc(Cl)c(C(=O)O)n1Cc1ccc(-c2cc(C3CCCCC3)ccc2-c2nn[nH]n2)cc1 [Example 424] ?
Result: 7.17

Task: May I ask what pEC50 has been recorded for CCCCC(=O)N(Cc1ccc(-c2cc(-c3ccccc3)ccc2-c2nn[nH]n2)cc1)C1(C(=O)O)CC1 [Example 269] ?
Result: 4.51

Task: May I ask what pEC50 has been recorded for CCc1nc2c(C)cc(C)nc2n1Cc1ccc(-c2cc(-c3cnn(C)c3)ccc2-c2nn[nH]n2)cc1 [Example 21] ?
Result: 7.29

Task: May I ask what pEC50 has been recorded for CCCCc1nc(Cl)c(C(=O)O)n1Cc1ccc(-c2cc(-c3cn(C(C)C)nc3C(F)(F)F)ccc2-c2nn[nH]n2)cc1 [Example 388] ?
Result: 8.34

Task: May I ask what pEC50 has been recorded for CCc1nc2c(C)cc(C)nc2n1Cc1ccc(-c2cc(Oc3ncccc3F)ccc2-c2nn[nH]n2)cc1 [Example 253] ?
Result: 7.75

Task: May I ask what pEC50 has been recorded for CCCCc1ncc(C(=O)NC2CCCC2)n1Cc1ccc(-c2cc(-c3ccccc3)ccc2-c2nn[nH]n2)cc1 [Example 377] ?
Result: 7.60

Task: May I ask what pEC50 has been recorded for CCCCc1nc(Cl)c(C(=O)O)n1Cc1ccc(-c2cc(-c3ccc(C(=O)N(C)C)cc3)ccc2-c2noc(=O)[nH]2)cc1 [Example 409] ?
Result: 7.14

Task: May I ask what pEC50 has been recorded for CCCCc1ncc(-c2nnc(C)o2)n1Cc1ccc(-c2cc(-c3ccccc3)ccc2-c2nn[nH]n2)cc1 [Example 413] ?
Result: 7.25
